# Read-out: E-selectin (Homo sapiens) (UniProt P16581)
# Sequence (P16581 whole entry, looked up): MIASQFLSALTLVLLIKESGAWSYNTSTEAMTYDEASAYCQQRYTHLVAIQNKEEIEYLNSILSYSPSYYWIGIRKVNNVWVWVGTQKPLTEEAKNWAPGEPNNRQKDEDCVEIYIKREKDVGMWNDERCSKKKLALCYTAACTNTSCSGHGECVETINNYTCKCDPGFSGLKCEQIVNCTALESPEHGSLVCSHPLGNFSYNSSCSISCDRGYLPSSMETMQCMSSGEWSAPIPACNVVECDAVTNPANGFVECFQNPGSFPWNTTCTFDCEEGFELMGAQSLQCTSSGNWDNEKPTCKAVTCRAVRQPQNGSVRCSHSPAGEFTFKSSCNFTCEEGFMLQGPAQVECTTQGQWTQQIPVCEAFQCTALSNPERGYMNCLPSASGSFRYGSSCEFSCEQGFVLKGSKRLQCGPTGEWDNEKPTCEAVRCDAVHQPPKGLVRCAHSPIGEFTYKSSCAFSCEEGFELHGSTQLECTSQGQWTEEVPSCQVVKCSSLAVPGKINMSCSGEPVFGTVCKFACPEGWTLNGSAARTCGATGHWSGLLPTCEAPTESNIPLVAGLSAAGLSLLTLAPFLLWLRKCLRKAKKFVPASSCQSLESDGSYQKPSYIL
# assay: BSK_SAg_Eselectin: BioMAP Diversity Plus: SAg Assay for Eselectin Biomarker Activity (AID 2283091)
# condition context: primary human HUVEC with PBMC; actives raise or lower the signal
Calls of active or inactive are those of the source. Rule for the calls: active = hit-call score of the fitted dose curve at least 0.9, where 1 is the maximum; inactive = score below 0.9.
Return exactly one item of true (1) for active, false (0) for inactive

Illustrative cases are given below, each with its answer.
[[record]]
molecule = "ClC(Cl)=C(Cl)C(Cl)=C(Cl)Cl"
discrete_label = "false (0)"

[[record]]
molecule = "ClC1=C(Cl)[C@]2(Cl)[C@H]3[C@H]([C@H]4C=C[C@H]3C4)[C@@]1(Cl)C2(Cl)Cl"
discrete_label = "false (0)"

[[record]]
molecule = "CC12CC1(C)C(=O)N(c1cc(Cl)cc(Cl)c1)C2=O (stereo not given)"
discrete_label = "false (0)"


### Prompt For this molecule, state the assay outcome: `COc1cc(OC)nc(NC(=O)NS(=O)(=O)c2ncccc2C(=O)N(C)C)n1`
### Response false (0)

### Prompt Per the assay record, what outcome was assigned to `O=[N+]([O-])c1ccc(O)c([N+](=O)[O-])c1` ?
### Response false (0)

### Prompt Per the assay record, what outcome was assigned to `COP(=S)(OC)Oc1cc(Cl)c(Cl)cc1Cl` ?
### Response true (1)

### Prompt So what was the verdict on `COC(=O)c1sccc1S(=O)(=O)NC(=O)Nc1nc(C)nc(OC)n1` in this test?
### Response false (0)

### Prompt Outcome? `C[C@@H]1C[C@@H]([C@H](O)CC2CC(=O)NC(=O)C2)C(=O)[C@@H](C)C1`
### Response true (1)

### Prompt GET /call?item= `O=C(O)C(F)(F)C(F)(F)C(F)(F)C(F)(F)C(F)(F)C(F)(F)F` returns the recorded outcome of this test.
### Response false (0)

### Prompt How did this test come out for `C[C@]12CCC(=O)C[C@@H]1CC[C@@H]1[C@@H]2CC[C@]2(C)[C@@H](O)CC[C@@H]12` ?
### Response false (0)

---

# Read-out: Monocyte Chemoattractant Protein-1 (MCP1), CCL2 (gene 6347)
# assay: BSK_4H_MCP1: BioMAP Diversity Plus: 4H Assay for Monocyte Chemoattractant Protein-1 (MCP1) Biomarker Activity (AID 2283018)
# condition context: primary human endothelial cells (HUVEC); actives raise or lower the signal
Activity calls are given as the source filed them. How the source made its calls: active means hit-call score of the fitted dose curve at least 0.9, where 1 is the maximum; inactive means score below 0.9.
measured quantity: AC50

[[record]]
molecule = "CC(=O)C(Cl)C(=O)N(C)C (configuration not stated)"
measured_quantity = "AC50"
result = "20 µM (active)"

[[record]]
molecule = "Nc1ncc([N+](=O)[O-])s1"
measured_quantity = "AC50"
result = "inactive"

[[record]]
molecule = "CN(C)N=O"
measured_quantity = "AC50"
result = "inactive"

[[record]]
molecule = "Oc1cccc2cccnc12"
measured_quantity = "AC50"
result = "inactive"

[[record]]
molecule = "C(=NC1CCCCC1)=NC1CCCCC1"
measured_quantity = "AC50"
result = "3.82 µM (active)"


For every listed record, write down its AC50.
1. CC(C)c1ccc(CO)cc1
2. Cc1ccccc1N

### Response
inactive
inactive

Hi there! I need AC50 for each item below, if you can.
1. CC(C)(c1ccccc1)c1ccc(O)c(C(C)(C)c2ccccc2)c1
2. NC(=O)O
3. COP(=S)(OC)Oc1c(Cl)cc(C)cc1Cl
4. O=C(OC1CCCCC1)c1ccccc1C(=O)OC1CCCCC1
5. ClC1=C(Cl)[C@]2(Cl)[C@H]3[C@H]([C@H]4C=C[C@H]3C4)[C@@]1(Cl)C2(Cl)Cl

### Response
["7.28 µM (active)", "inactive", "3.97 µM (active)", "8.94 µM (active)", "0.748 µM (active)"]

Working through the 2 molecules below one at a time, give AC50 for each.
1. CCN1CCC2(CC1)COc1cc3c(cc12)N(C(=O)c1ccc(-c2ccc(-c4nnc(C)o4)cc2C)cc1)CC3
2. ClCC(Cl)CCl

### Response
26 µM (active)
inactive

// for each molecule in input: emit AC50
1. O=C(O)CCC(F)(C(F)(F)F)C(F)(F)F
2. O=[N+]([O-])c1ccc2c3c(cccc13)CC2
3. C=C(C)C(=O)[O][Sn]([CH2]CCC)([CH2]CCC)[CH2]CCC

### Response
1. inactive
2. inactive
3. 0.663 µM (active)

---

# study system: Peroxisome proliferator-activated receptor gamma (Homo sapiens) (UniProt P37231)
# Sequence (P37231 whole entry, looked up): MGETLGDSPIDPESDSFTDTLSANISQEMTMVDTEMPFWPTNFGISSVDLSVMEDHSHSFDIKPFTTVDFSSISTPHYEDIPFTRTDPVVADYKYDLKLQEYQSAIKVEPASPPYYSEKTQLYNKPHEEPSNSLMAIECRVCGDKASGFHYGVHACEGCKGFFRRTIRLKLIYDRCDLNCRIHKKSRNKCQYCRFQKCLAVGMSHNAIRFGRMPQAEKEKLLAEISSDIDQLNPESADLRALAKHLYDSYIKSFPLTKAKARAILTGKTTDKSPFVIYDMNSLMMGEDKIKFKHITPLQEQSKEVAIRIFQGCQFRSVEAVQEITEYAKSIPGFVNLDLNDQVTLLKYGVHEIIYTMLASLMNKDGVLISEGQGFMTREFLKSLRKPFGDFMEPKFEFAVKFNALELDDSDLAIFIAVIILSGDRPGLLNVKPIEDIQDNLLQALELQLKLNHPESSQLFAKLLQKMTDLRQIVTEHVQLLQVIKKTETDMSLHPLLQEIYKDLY
# assay: NVS_NR_hPPARg: NovaScreen (NVS) Nuclear Receptor Binding Assay for human Peroxisome Proliferator-activated Receptor gamma (PPARg) (AID 2283370)
Inconclusive results are not listed. Calls of active or inactive are those of the source. Rule for the calls: active = hit-call score of the fitted dose curve at least 0.9, where 1 is the maximum; inconclusive = response in the unintended direction; inactive = score below 0.9.
The reply should be one of these categories: yes (1) for active, no (0) for inactive

Worked cases, answers included:
[[record]]
compound = "CCC[CH2][Sn]([Cl])([Cl])[Cl]"
discrete_label = "no (0)"

[[record]]
compound = "CN(C)N=O"
discrete_label = "no (0)"

[[record]]
compound = "CC(C)(OO)c1ccccc1"
discrete_label = "no (0)"

[[record]]
compound = "O=C(NCO)NCO"
discrete_label = "yes (1)"

[[record]]
compound = "Cc1ccccc1C(=O)Nc1cccc(OC(C)C)c1"
discrete_label = "no (0)"


### Prompt // return assay outcome for ClC1(Cl)C2(Cl)C3(Cl)C4(Cl)C(Cl)(Cl)C5(Cl)C3(Cl)C1(Cl)C5(Cl)C24Cl (stereo not drawn)
### Response no (0)

### Prompt What was the test verdict on CNC(=O)O/N=C/C(C)(C)S(C)=O (stereo not drawn) ?
### Response no (0)

### Prompt Write down the call the test reported for this compound. Item: `COC(=O)c1sccc1S(=O)(=O)NC(=O)Nc1nc(C)nc(OC)n1`
### Response no (0)

### Prompt So what was the verdict on CC(C)(c1ccc(OCC2CO2)cc1)c1ccc(OCC2CO2)cc1 (stereo not drawn) in this test?
### Response no (0)

---

# assay: ATG_NFI_CIS: Attagene CIS-FACTORIAL HepG2 Assay for human Nuclear Factor I (NFI) (AID 2282989)
# condition context: HepG2 cis-regulatory reporter, NFI response element transcription; actives raise or lower the signal
The source made the active and inactive calls. Rule for the calls: active = hit-call score of the fitted dose curve at least 0.9, where 1 is the maximum; inactive = score below 0.9.
// one of TRUE = active, FALSE = inactive, no free text

Examples with answers:
[[record]]
molecule = "CC(C)(C)CC(C)(C)c1ccc(O)cc1"
discrete_label = "FALSE"

[[record]]
molecule = "Nc1cccc2ccccc12"
discrete_label = "FALSE"

[[record]]
molecule = "CCCCC(CC)CO[N+](=O)[O-] (stereo not drawn)"
discrete_label = "FALSE"

[[record]]
molecule = "O=C/C=C/c1ccccc1"
discrete_label = "FALSE"

[[record]]
molecule = "O=P(O)(O)CN(CP(=O)(O)O)CP(=O)(O)O"
discrete_label = "FALSE"


Turning now to a further record.
### Prompt Which outcome was assigned to `O=C(NCO)NCO` in this test?
### Response FALSE

---

# assay: TOX21_p53_BLA_p3_viability: Viability Assessment in the Tox21 HCT-116 p53 Agonism Beta-lactamase Assay, Phase 3 (AID 2283593);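 note: cells exposed to compound for 16 h before reading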
Results filed as inconclusive are left out. The source made the active and inactive calls. Rule for the calls: active = hit-call score of the fitted dose curve at least 0.9, where 1 is the maximum; inconclusive = response in the unintended direction; inactive = score below 0.9.
# valid calls are active, inactive; nothing else

[[record]]
compound = "CC(C)C1CCC(Cc2ccc(Cl)cc2)C1(O)Cn1cncn1 (stereo not given)"
discrete_label = "active"


Now for another entry.
### Prompt Just curious, what result did `C=CC#N` get here?
### Response inactive

---

# Read-out: Signal transducer and activator of transcription 3 (Homo sapiens)
# assay: LTEA_HepaRG_STAT3: Life Technologies and Expression Analysis (LTEA) Assay for Signal transducer and activator of transcription (STAT3) using HepaRG (AID 2283529)
# condition context: mRNA level, 48 h; actives raise or lower the signal
# Description: LTEA_HepaRG is a cell based, multiplexed-readout assay that uses HepaRG, a human liver cell line, with measurements taken at 48 hours after chemical dosing on a 96-well plate.LTEA_HepaRG_STAT3 is one of 102 assay component(s) measured in the LTEA HepaRG cell culture assay. It is a marker of Cell proliferation, survival, death.Data from the assay component LTEA_HepaRG_STAT3 was analyzed into 1 endpoint. […]
Activity calls are given as the source filed them. The calls were made as follows: active = hit-call score of the fitted dose curve at least 0.9, where 1 is the maximum; inactive = score below 0.9.
Outcomes you can answer with include only these: active, inactive

Some solved cases for reference:
[[record]]
compound = "O=C(O)C(Cl)(Cl)Cl"
discrete_label = "inactive"

[[record]]
compound = "ClCC(Cl)CCl"
discrete_label = "inactive"

[[record]]
compound = "CN(C)N=O"
discrete_label = "inactive"

[[record]]
compound = "CCCCCCCCc1ccc(O)cc1"
discrete_label = "inactive"

[[record]]
compound = "O=C(O)C(F)(F)C(F)(F)C(F)(F)C(F)(F)C(F)(F)C(F)(F)C(F)(F)C(F)(F)C(F)(F)C(F)(F)F"
discrete_label = "inactive"

[[record]]
compound = "CCOP(=S)(OCC)SCSP(=S)(OCC)OCC"
discrete_label = "inactive"

[[record]]
compound = "O=c1[nH]c(=O)[nH]c(=O)[nH]1"
discrete_label = "inactive"

[[record]]
compound = "ClC1(Cl)C2(Cl)C3(Cl)C4(Cl)C(Cl)(Cl)C5(Cl)C3(Cl)C1(Cl)C5(Cl)C24Cl (stereo not drawn)"
discrete_label = "inactive"


### Prompt Could you please tell me the result logged for `C=C(C)C(=O)[O][Sn]([CH2]CCC)([CH2]CCC)[CH2]CCC` in this assay?
### Response inactive

### Prompt Recorded call for `Cn1sc(Cl)cc1=O` ?
### Response inactive

### Prompt Hello, I am checking results. What call was entered for `C[C@]12CCC(=O)C[C@@H]1CC[C@@H]1[C@@H]2CC[C@]2(C)[C@@H](O)CC[C@@H]12` ?
### Response inactive

### Prompt Look up the recorded call for `CCN1CCC2(CC1)COc1cc3c(cc12)N(C(=O)c1ccc(-c2ccc(-c4nnc(C)o4)cc2C)cc1)CC3` in this test.
### Response active

### Prompt What classification did `CCOP(=S)(OCC)Oc1nc(Cl)c(Cl)cc1Cl` end up with in this test?
### Response inactive

The reported numbers originate from PubChem BioAssay (EPA / NIEHS).
